Target: hCB2R (Homo sapiens, UniProt P34972)
Construct: host or cells: CHO-K1 (PathHunter)
Sequence (P34972 whole entry): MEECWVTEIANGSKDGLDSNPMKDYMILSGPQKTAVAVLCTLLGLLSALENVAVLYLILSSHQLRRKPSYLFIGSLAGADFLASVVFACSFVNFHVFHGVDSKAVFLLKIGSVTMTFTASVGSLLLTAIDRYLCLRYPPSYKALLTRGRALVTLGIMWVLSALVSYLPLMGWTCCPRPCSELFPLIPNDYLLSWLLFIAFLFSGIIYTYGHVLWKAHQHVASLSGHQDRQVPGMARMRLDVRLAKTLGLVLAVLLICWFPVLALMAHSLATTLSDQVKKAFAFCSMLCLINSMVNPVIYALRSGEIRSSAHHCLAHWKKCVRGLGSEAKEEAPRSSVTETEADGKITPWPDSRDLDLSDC
Test: HitHunter inhibition of FSK-stimulated cAMP, CB2R
Type: cell-based
Quick reference for log10 EC50 among some compounds
propertyMeasured: log10 EC50 (log10 of the value in nM)

                                   compound                           studysystem  reportedmeasurement
0  CCC(Cl)CCn1nc(C(=O)NC(C(N)=O)C(C)C)c2ccccc21 (stereo not drawn) [3-chloro AB-PINACA]  hCB2R (Homo sapiens, UniProt P34972)                 1.28
1  CC(C)CCn1cc(C(=O)c2ccc3ccccc3c2)c2ccccc21 [JWH 018 2'-naphthyl-N-(3-methylbutyl) isomer]  hCB2R (Homo sapiens, UniProt P34972)                -0.28
2  COC(=O)[C@@H](NC(=O)c1nn(CCCCF)c2ccccc12)C(C)(C)C [4-fluoro MDMB-BINACA]  hCB2R (Homo sapiens, UniProt P34972)                -0.25
3  O=C(Oc1cccc2cccnc12)c1nn(CCCCCF)c2ccccc12 [5-fluoro NPB-22]  hCB2R (Homo sapiens, UniProt P34972)                 0.51
4  CCCC(F)Cn1nc(C(=O)NC(C(N)=O)C(C)C)c2ccccc21 (stereo not drawn) [AB-PINACA N-(2-fluoropentyl) isomer]  hCB2R (Homo sapiens, UniProt P34972)                 1.00
5  CCCCCn1cc(C(=O)c2ccc(CCC)c3ccccc23)c2ccccc21 [JWH 182]  hCB2R (Homo sapiens, UniProt P34972)                 1.40
6  O=C(Nc1cccc2ccccc12)c1cn(Cc2ccc(F)cc2)c2ccccc12 [FDU-NNEI]  hCB2R (Homo sapiens, UniProt P34972)                -2.00
7  Cc1ccc(C(=O)c2cn(CCCCCCl)c3ccccc23)c2ccccc12 [MAM2201 N-(5-chloropentyl) analog]  hCB2R (Homo sapiens, UniProt P34972)                 2.76
8  COC(=O)[C@H](Cc1ccccc1)NC(=O)c1cn(CCCCCF)c2ccccc12 [5-fluoro MPP-PICA]  hCB2R (Homo sapiens, UniProt P34972)                 1.08

---

Biological target: hCB1R (Homo sapiens)
Sequence (P21554 whole entry): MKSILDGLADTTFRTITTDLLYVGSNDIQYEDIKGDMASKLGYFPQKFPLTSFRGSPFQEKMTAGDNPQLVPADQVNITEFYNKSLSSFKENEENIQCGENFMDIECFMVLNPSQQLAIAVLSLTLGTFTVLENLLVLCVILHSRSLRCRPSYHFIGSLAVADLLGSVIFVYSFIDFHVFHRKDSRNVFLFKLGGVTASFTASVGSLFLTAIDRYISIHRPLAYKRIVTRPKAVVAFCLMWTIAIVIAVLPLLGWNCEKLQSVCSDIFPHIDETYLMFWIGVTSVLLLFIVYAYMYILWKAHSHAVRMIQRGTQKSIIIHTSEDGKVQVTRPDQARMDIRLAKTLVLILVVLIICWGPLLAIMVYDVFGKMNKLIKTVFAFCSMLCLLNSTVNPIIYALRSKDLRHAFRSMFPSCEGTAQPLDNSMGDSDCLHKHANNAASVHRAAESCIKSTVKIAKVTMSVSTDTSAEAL
Quick reference for Ki among some molecules
propertyMeasured: Ki (nM)

>>> df
                                   molecule  propertymeasured  reportedmeasurement
0  CCCCCn1cc(C(=O)c2ccc(CCC)c3ccccc23)c2ccccc21 [JWH 182]                Ki                 0.77
1  CCC(Cl)CCn1nc(C(=O)NC(C(N)=O)C(C)C)c2ccccc21 (stereo not shown) [3-chloro AB-PINACA]                Ki                  170
2  CC(C)CCn1cc(C(=O)c2ccc3ccccc3c2)c2ccccc21 [JWH 018 2'-naphthyl-N-(3-methylbutyl) isomer]                Ki                 0.93
3  O=C(Nc1cccc2ccccc12)c1cn(Cc2ccc(F)cc2)c2ccccc12 [FDU-NNEI]                Ki                   14
4  O=C(Oc1cccc2cccnc12)c1nn(CCCCCF)c2ccccc12 [5-fluoro NPB-22]                Ki                   47
5  Cc1ccc(C(=O)c2cn(CCCCCCl)c3ccccc23)c2ccccc12 [MAM2201 N-(5-chloropentyl) analog]                Ki                   10
6  N#CCCCCn1cc(C(=O)c2cccc3ccccc23)c2ccccc21 [AM 2232]                Ki                 0.31

---

Let's go through some log10 Ki measurements on hCB2R (Homo sapiens, UniProt P34972) together.
propertyMeasured: log10 Ki (log10 of the value in nM)

>>> print(df.to_string())
                                   compound                           studysystem  reportedmeasurement
0  O=C(Oc1cccc2cccnc12)c1nn(CCCCCF)c2ccccc12  hCB2R (Homo sapiens, UniProt P34972)                 0.63
1  CC(C)CCn1cc(C(=O)c2ccc3ccccc3c2)c2ccccc21 [JWH 018 2'-naphthyl-N-(3-methylbutyl) isomer]  hCB2R (Homo sapiens, UniProt P34972)                 0.88
2  CCCCCn1cc(C(=O)c2ccc(CCC)c3ccccc23)c2ccccc21  hCB2R (Homo sapiens, UniProt P34972)                 0.79
3  CCC(Cl)CCn1nc(C(=O)NC(C(N)=O)C(C)C)c2ccccc21 (stereo not shown)  hCB2R (Homo sapiens, UniProt P34972)                 1.72
4  CC(C)C(NC(=O)c1nn(Cc2ccccc2F)c2ccccc12)C(N)=O (stereo not shown)  hCB2R (Homo sapiens, UniProt P34972)                -0.03
5  COC(=O)[C@@H](NC(=O)c1nn(CCCCF)c2ccccc12)C(C)(C)C  hCB2R (Homo sapiens, UniProt P34972)                -0.39
